Literature IC50 values, system: UniProt P16233.
Measurement Name: IC50 (µM)

Compound	System Name	Unit Info	IC50
O=C(/C=C/c1ccc(O)c(O)c1)O[C@@H]1C[C@](O)(C(=O)O)C[C@@H](O)[C@H]1O	UniProt P16233	µM	3130
O=C1c2c(O)cc(O)cc2OC(c2ccc(O)c(O)c2)C1O (centres unmarked)	UniProt P16233	µM	27.8
COc1ccc(-c2cc(=O)c3c(O)cc(O)c(-c4cc(-c5cc(=O)c6c(O)cc(OC)cc6o5)ccc4OC)c3o2)cc1	UniProt P16233	µM	1.36

P: O=C(O[C@H]1[C@H](O)[C@@H](CO)OC(O)[C@@H]1OC(=O)c1cc(O)c(O)c(O)c1)c1cc(O)c(O)c(O)c1 (some centres unmarked)
Q: O=C(OC[C@H]1O[C@@H](Oc2c(-c3cc(O)c(O)c(O)c3)oc3cc(O[C@@H]4O[C@H](CO)[C@@H](O)[C@H](O)[C@H]4O)cc(O)c3c2=O)[C@H](O)[C@@H](O)[C@@H]1O)c1cc(O)c(O)c(O)c1
Problem: Please indicate which item has the smaller measured IC50: P versus Q Refer to your chosen item by its label in the answer.
Result: Q
(Q: 40.3 µM, P: 549 µM)
